Source listed as the Immune Epitope Database (IEDB).

Entries annotated with measured Kd
- system.under.test: HLA-A*02:19
- assay.info: IEDB peptide-MHC binding, purified MHC/direct/fluorescence; filed as Kd, often an IC50 or EC50 that approximates it; bounds were set here for any values at or beyond the usual limits of such assays
- reported.conditions: source organism: Ravn virus - Ravn, Kenya, 1987

Request body: readout Kd, system HLA-A*02:19, query YSGNIVHRY . Return the value.
≥ 20 µM

Please look at the following sequence next.
Request body: readout Kd, system HLA-A*02:19, query PQVLGGLSF . Return the value.
≥ 20 µM

###

- system.under.test: HLA-A*23:01
- assay.info: IEDB peptide-MHC binding, purified MHC/direct/fluorescence; filed as Kd, often an IC50 or EC50 that approximates it; bounds were set here for any values at or beyond the usual limits of such assays
- reported.conditions: source organism: Ravn virus - Ravn, Kenya, 1987
pKd: −log10 of the molar value.
assay.readout: pKd

Reported pKd, sequence PQVLGGLSF : ____
≤ 4.70
